- Tested on: MS2 coat protein
- Assay text: apparent KD of MS2 coat protein; designed switch direction (-1 OFF switch, 1 ON switch): -1; higher = weaker reporter binding
- Condition summary: input ligand: none
Catalogue of sequences with associated apparent KD of MS2 coat protein
Assay endpoint: apparent KD of MS2 coat protein (nM)

{"columns": ["Query sequence", "Recorded measurement"],
 "data": [
  ["GUCAGCUCGUGAGGAUAUACAUGAGGAUCACCCAUGUGGUCAUUAGCAGCUUCGGCUGCAUUAAUGUAGAAGGCACGAGCUGAC [ENG2/8-A1] (Eterna round: R96, puzzle: Exclusion NG 2)", 1140],
  ["AGAGUGAGAGGAUAUUGGAUUCCUAACAUGAGGAUCACCCAUGUAGUACGGUGCUACUGACAAGAAGGCUCACUCU [etrenacac ex5r4 #7] (Eterna round: R97, puzzle: Exclusion 5)", 76.1],
  ["GACUAGGGAGGAUAUAUUUACAGUGUACCUCGGAUGAUCGCACUUGAGGAUCACCCAAGUAGAAGGCUCGAGGG [EX2 #28] (Eterna round: R97, puzzle: Exclusion 2)", 33.2],
  ["UUCCUCAUAACAUGAGGAUCACCCAUGUAUUAUUUGGUAACUGAGGAUAUACUUUUAAUGUUUAUGUAGAAGGCAGAUACAGUU [JR_ExcNG3_Sub017] (Eterna round: R96, puzzle: Exclusion NG 3)", 109],
  ["UAAUAUCUGAUUCUUGAGAUACAUGAGGAUCACCCAUGUUCACAGGAUAUUGAUUUUAAGAAAAGCAAGAAGGGUGAAUCAUUU [JR_ExcNG3_Sub041] (Eterna round: R96, puzzle: Exclusion NG 3)", 22.9]
]}

---

- Test system: MS2 coat protein
- Assay text: apparent KD of MS2 coat protein; designed switch direction (-1 OFF switch, 1 ON switch): -1; higher = weaker reporter binding
- Condition summary: input ligand: FMN 200 uM
Label rule, in plain words: apparent KD of MS2 coat protein of 0.03 µM and up is satisfied, under 0.03 µM is not satisfied.

{"columns": ["Query sequence", "Class"],
 "data": [
  ["AAGAUGCGGAUAGGAUAUGGAAAAAAAAAAAAAUUAGAAGGGUUGGUUAAAAUACAUGAGGAUCACCCAUGUGAAUCAUGAGAA [AK ExNG1-2.1] (Eterna round: R96, puzzle: Exclusion NG 1)", "satisfied"],
  ["GUCACAUGGACAUAGGAUCACAUGAGGAUCACCCAUGUGACUAACAAGCUUUUUGCUCGUCUUAUGUCUAUGUGAAA [Stov1/16-A1] (Eterna round: R97, puzzle: Sensor, turn-off variant 1)", "not satisfied"],
  ["UAAUUCGUAGGAUAUACAAAGGGAGAAUGAUUGCGGUCCUGACAUGAGGAUCACCCAUGUAGAAGGAUGAGGGU [Eternabot (L1) Solution 41] (Eterna round: R97, puzzle: Exclusion 2)", "satisfied"],
  ["AAGUAGGGAGGAUAUACAUAGAUACAGAUUCAUGUAGAACUACAUGAGGAUCACCCAUGUAGAAGGCCCUAAUA [AJ 37] (Eterna round: R96, puzzle: Exclusion 2)", "satisfied"],
  ["UGUCAGAUGGUAGGAUAUCCAUAUCGAGUGACCCUUUCUUAACAUGAGGAUCACCCAUGUCGGUGGGAGAAGGGCCGUAUGGUG [salish99_ExNG02_R04_032] (Eterna round: R96, puzzle: Exclusion NG 2)", "satisfied"],
  ["ACAUCCUUAGUAAGGAUAUCGUCCGCCGAGGCGGGCGAGAAGGUACAUGAGGAUCACCCAUGUAUGCAGCAGAU [Eternabot (L2) Solution 59] (Eterna round: R97, puzzle: Brourd's mod of Exclusion 4)", "not satisfied"],
  ["GGGCUUCGAGUCAGGAUAUAAGGCCGCUGGCCCAUUUAGAAGGGACUUGAGGAUCACCCAAGUCACCACGGACG [Geceisbi] (Eterna round: R97, puzzle: Brourd's mod of Exclusion 4)", "not satisfied"],
  ["GGCAUCGGAGGAUAUACUUAUGGUGAUACCGGAAGCUUUCUACUUGAGGAUCACCCAAGUAGAAGGCCGAUGCC [jl-ex2.4.84 ViennaUCT mod] (Eterna round: R97, puzzle: Exclusion 2)", "not satisfied"]
]}

Every entry's value here was drawn from the supplement of paper PMC9170038.
